# experimentalTarget: CRF-1 (UniProt P34998)
# experimentalDetails: CRF-1 receptor antagonism, HTRF cAMP assay in CHO cells
# Assay type: cell-based, human
# conditionParameters: Biological data Table 2; inhibition of CRF induced cAMP response in CHO cells, EC50 concentration of CRF
parameter: IC50 (nM)

Cc1ncc(Cl)cc1C(=O)N[C@H]1CC[C@H](CN2C(=O)[C@@](C)(F)c3ccccc32)CC1
62
Cc1ncc(Cl)cc1C(=O)N[C@H]1CC[C@H](CN2C(=O)C(C)(C)c3ccc(Cl)cc32)CC1
14
Cc1cccc2c1C(C)(C)C(=O)N2C[C@H]1CC[C@H](NC(=O)c2cc(Cl)cnc2C)CC1
157
COc1ccc2c(c1)N(C[C@H]1CC[C@H](NC(=O)c3cc(Cl)cnc3C)CC1)C(=O)C2(C)C
38
Cc1cccc2c1N(C[C@H]1CC[C@H](NC(=O)c3cc(C(F)(F)F)ccc3Cl)CC1)C(=O)C2(C)C
57

I: CCn1c(=O)n(C[C@H]2CC[C@H](NC(=O)c3cc(C(F)(F)F)ccc3Cl)CC2)c2ccccc21
II: Cc1ncc(Cl)cc1C(=O)N[C@H]1CC[C@H](CN2C(=O)C(C)(F)c3ccc(Cl)cc32)CC1 (single isomer, unassigned)
Hi, I'm comparing I with II and wondering which one has the bigger number for IC50. Any idea? Mark your answer with the label of the selected entry. II
